Tested on: IL-6
experimentNotes: IL-1β-stimulated IL-6 production in A549 lung epithelial cells
Assay type: cell-based, Human
studyConditions: A549 cells; Prednisolone (1 µM) = 100% inhibition control
Structures can show the parent of a compound that is named as a salt.
Reported values of IL-6 % Inhibition for individual entries
observedProperty: IL-6 % Inhibition (%)

> print(dat)
                                   compound  observedresult
1  Cc1ncccc1CNC(=O)c1ccc2c(c1)CC[C@@H]1C[C@@](O)(CCC(F)(F)F)CC[C@@]21Cc1ccccc1 [Comparator A, reference compound]            59.9
2  Cc1ccncc1NC(=O)c1ccc2c(c1)CC[C@@H]1C[C@@](O)(C(F)(F)F)CC[C@@]21Cc1ccccc1            79.8
3  Cc1ncccc1NC(=O)c1ccc2c(c1)C(=O)C[C@@H]1C[C@@](O)(C(F)(F)F)CC[C@@]21Cc1ccccc1            79.7
4  Cc1ncccc1NC(=O)c1ccc2c(c1)CC[C@@H]1C[C@@](O)(C(F)F)CC[C@@]21Cc1ccccc1            64.9
5  Cc1ncccc1NC(=O)c1ccc2c(c1)CC[C@@H]1C[C@@](O)(C(F)(F)F)CC[C@@]21Cc1ccccc1 [Example 1 HCL salt]            76.9
6  Cc1ncc(NC(=O)c2ccc3c(c2)CC[C@@H]2C[C@@](O)(CCC(F)(F)F)CC[C@@]32Cc2ccccc2)c(C)n1              55

---

System: TNFα
experimentNotes: LPS-induced serum TNFα suppression, 28-day repeat dose mouse model
Assay type: in vivo, Swiss Webster female mice
studyConditions: oral gavage, 28 days, LPS-induced serum TNFα
observedProperty: TNFα Suppression (ED80 dose)

> print(dat)
                                   compound  observedresult
1  Cc1cnc(NC(=O)c2ccc3c(c2)CC[C@@H]2C[C@@](O)(C(F)(F)F)CC[C@@]32Cc2ccccc2)c(C)n1 [Comparator B]      2.91 mg/kg
2  Cc1ncccc1NC(=O)c1ccc2c(c1)CC[C@@H]1C[C@@](O)(CCC(F)(F)F)CC[C@@]21Cc1ccccc1 [Comparator C]      1.33 mg/kg
3  Cc1ncccc1NC(=O)c1ccc2c(c1)C(=O)C[C@@H]1C[C@@](O)(C(F)(F)F)CC[C@@]21Cc1ccccc1 [Comparator E]      1.18 mg/kg
4  Cc1ncccc1NC(=O)c1ccc2c(c1)C=C[C@@H]1C[C@@](O)(C(F)(F)F)CC[C@@]21Cc1ccccc1 [Comparator I]      5.45 mg/kg
5  Cc1ncc(NC(=O)c2ccc3c(c2)CC[C@@H]2C[C@@](O)(CCC(F)(F)F)CC[C@@]32Cc2ccccc2)c(C)n1 [Comparator J]      0.79 mg/kg
6  Cc1ccncc1NC(=O)c1ccc2c(c1)CC[C@@H]1C[C@@](O)(C(F)(F)F)CC[C@@]21Cc1ccccc1 [Comparator D]       >20 mg/kg
7  Cc1ncccc1NC(=O)c1ccc2c(c1)CC[C@@H]1C[C@@](O)(C(F)F)CC[C@@]21Cc1ccccc1 [Comparator H]      0.72 mg/kg
8  Cc1ncccc1NC(=O)c1ccc2c(c1)[C@H](O)C[C@@H]1C[C@@](O)(C(F)(F)F)CC[C@@]21Cc1ccccc1 [Comparator F]      5.67 mg/kg

---

Reported values of AUC for individual entries
experimentNotes: in vivo
studyConditions: rat, po
observedProperty: AUC (ng·h/mL)

> print(dat)
                                smilesentry  observedresult
1  Cc1ncccc1NC(=O)c1ccc2c(c1)CC[C@@H]1C[C@@](OP(=O)(O)O)(C(F)(F)F)CC[C@@]21Cc1ccccc1            1610
2  Cc1ncccc1NC(=O)c1ccc2c(c1)CC[C@@H]1C[C@@](O)(C(F)(F)F)CC[C@@]21Cc1ccccc1             460

---

Reported values of ED50 for individual entries
experimentNotes: Serum osteocalcin suppression, 28-day repeat dose mouse model
studyConditions: in vivo, po
observedProperty: ED50 (mg/kg)

> print(dat)
                                   compound  unitslabel  observedresult
1  C[C@]12C=CC(=O)C=C1CC[C@@H]1[C@@H]2[C@@H](O)C[C@@]2(C)[C@H]1CC[C@]2(O)C(=O)CO [Prednisolone, reference compound]       mg/kg               1
2  Cc1ncccc1NC(=O)c1ccc2c(c1)CC[C@@H]1C[C@@](O)(C(F)(F)F)CC[C@@]21Cc1ccccc1       mg/kg            2.91

---

Reported values of Papp A→B for individual entries
experimentNotes: Caco-2 cell monolayer A→B permeability assay
studyConditions: human
observedProperty: Papp A→B (×10⁻⁶ cm/s)

> print(dat)
                                smilesentry  unitslabel  observedresult
1  Cc1ncccc1NC(=O)c1ccc2c(c1)CC[C@@H]1C[C@@](OP(=O)(O)O)(C(F)(F)F)CC[C@@]21Cc1ccccc1  ×10⁻⁶ cm/s            1.15
2  Cc1ncccc1NC(=O)c1ccc2c(c1)CC[C@@H]1C[C@@](O)(C(F)(F)F)CC[C@@]21Cc1ccccc1  ×10⁻⁶ cm/s            37.5

---

Test system: IL-6
experimentNotes: IL-1β-stimulated IL-6 production in A549 lung epithelial cells
Format: cell-based, Human
studyConditions: A549 cells; Prednisolone (1 µM) = 100% inhibition control
Description: Human A549 lung epithelial cells (American Type Culture Collection, Rockville, MD) were cultured in Kaighn's F-12K medium with penicillin-streptomycin (10 U/mL) and 10% heat-inactivated fetal bovine serum (all from Invitrogen, Grand Island, NY). […] Plates were read with an MSD Sector Imager 6000. […] Percent inhibition for each compound concentration, relative to these controls, was calculated using Excel (Microsoft, Redmond, WA). […]
observedProperty: IL-6 % Inhibition (%)

> print(dat)
                                   molecule   observedproperty  observedresult
1  Cc1cnc(NC(=O)c2ccc3c(c2)CC[C@@H]2C[C@@](O)(C(F)(F)F)CC[C@@]32Cc2ccccc2)c(C)n1 [Comparator B]  IL-6 % Inhibition            75.8
2  Cc1ncccc1NC(=O)c1ccc2c(c1)CC[C@@H]1C[C@@](O)(CCC(F)(F)F)CC[C@@]21Cc1ccccc1 [Comparator C]  IL-6 % Inhibition            82.6
3  Cc1ncccc1NC(=O)c1ccc2c(c1)C=C[C@@H]1C[C@@](O)(C(F)(F)F)CC[C@@]21Cc1ccccc1 [Comparator I]  IL-6 % Inhibition            67.5
4  Cc1ncccc1NC(=O)c1ccc2c(c1)[C@H](O)C[C@@H]1C[C@@](O)(C(F)(F)F)CC[C@@]21Cc1ccccc1 [Comparator F]  IL-6 % Inhibition            83.3

---

testedOn: full-length glucocorticoid (GR) protein
experimentNotes: Glucocorticoid receptor fluorescence polarization ligand binding (GRFP) assay
studyConditions: additional result (footnote a)
pIC50: −log10 of the molar value.
observedProperty: pIC50

> print(dat)
                                   compound  observedproperty  observedresult
1  Cc1ncccc1NC(=O)c1ccc2c(c1)CC[C@@H]1C[C@@](OP(=O)(O)O)(C(F)(F)F)CC[C@@]21Cc1ccccc1 [Example 2]             pIC50            7.38

---

Reported values of Tmax for individual entries
experimentNotes: Oral absorption profile, time to Cmax in dogs
studyConditions: dog, in vivo
observedProperty: Tmax

> print(dat)
                                   compound  observedresult
1  Cc1ncccc1NC(=O)c1ccc2c(c1)CC[C@@H]1C[C@@](O)(C(F)(F)F)CC[C@@]21Cc1ccccc1 [Example 1]           1.5 h
2  Cc1ncccc1NC(=O)c1ccc2c(c1)CC[C@@H]1C[C@@](OP(=O)(O)O)(C(F)(F)F)CC[C@@]21Cc1ccccc1 [Example 2]           0.8 h
